// reported GI50 per item
- Tested on: DU-145 prostate
- Test method notes: NCI tumour cell line growth inhibition, 48 h
Property label: GI50

>>> readout_value("COc1ccc(S(=O)(=O)NC2=NCCN2C(=S)SN2CCn3c2nsc3=S)cc1")
"13.5 µM"
>>> readout_value("CCC(c1ccc(OC)cc1)C(CC)c1ccc(O)c(CN2CCN(C)CC2)c1 (stereo not drawn)")
"11.3 µM"
>>> readout_value("Clc1ccc(-c2csc(Nc3cccc(-c4csc(-c5ccccc5)n4)c3)n2)cc1")
"9.15 µM"

----------
- System: SNB-19 CNS
- Test method notes: NCI tumour cell line growth inhibition, 48 h
Returns one of Met or Not met; Met when TGI is >= 30 µM.

>>> assigned_category("O=C1c2ccccc2C(=O)c2sc(Nc3ccccc3C(F)(F)F)nc21")
"Met"
>>> assigned_category("Cc1cc(Nc2nc(-c3cccnc3)nc3ccccc23)n[nH]1")
"Met"
>>> assigned_category("CC(=O)c1c(CN(C)c2ccccc2)n([O-])c2ccccc2[n+]1=O")
"Met"
>>> assigned_category("O=C(CCC(=O)Nc1ccc(Cl)c(Cl)c1)CC(=O)c1ccc(F)cc1")
"Met"
>>> assigned_category("Cc1cn(CCCCCCC2=NCCCN2)c(=O)[nH]c1=O")
"Met"
>>> assigned_category("COc1cccc2c1-c1c(c3ccc([N+](=O)[O-])cc3c(=O)n1CCCN)C2=O")
"Not met"
>>> assigned_category("COC1=C(C)C(=O)c2c(c(CCCl)c3n2CCC3O)C1=O (stereo unspecified)")
"Not met"
>>> assigned_category("CN(C)c1ccc(/C=C/c2ccc(/C=C/c3ccc(N(C)C)cc3)cc2)cc1")
"Met"
>>> assigned_category("COC(=O)CCc1ccc2c(c1)C(=O)CC2")
"Met"
>>> assigned_category("CCOC(=O)c1cc(I)c(-c2cc(C)no2)n1C")
"Met"

----------
- Test system: M14 melanoma
- Test method notes: NCI tumour cell line growth inhibition, 48 h
Property label: TGI

>>> readout_value("COc1ccccc1C1=C(Nc2ccccc2)C(=O)NC1=O")
"> 25 µM"
>>> readout_value("CCCCCCCCCCCCCCCCNCCCN(C)CCCN")
"30.8 µM"
>>> readout_value("O=C1C=CC(=C(c2ccc(O)cc2)c2ccc(O)cc2)C=C1")
"26.4 µM"
>>> readout_value("O=[N+]([O-])c1ccccc1S(=O)(=O)c1ccccc1")
"> 100 µM"
>>> readout_value("NC1=NC(c2ccc(Cl)cc2)N(c2ccc(S(N)(=O)=O)cc2)C(N)=N1 (stereo not given)")
"> 100 µM"
>>> readout_value("O=C(c1ccccc1)n1cc(-c2ccccc2)c2c(=O)[nH]cnc21")
"> 100 µM"
>>> readout_value("O=C(CCC(=O)CC(O)(C(F)(F)F)C(F)(F)F)CC(O)(C(F)(F)F)C(F)(F)F")
"> 100 µM"
>>> readout_value("CC(=O)OC1C(C)OC(OC(=O)C2CCC3C(C2)OC2(CC(OC(=O)/C=C/c4ccccc4)C(C)CO2)C32CO2)C(OC2OC(C)C(O)C(OC(C)=O)C2O)C1O (stereo not given)")
"0.104 µM"
>>> readout_value("Cc1noc2c1C(=O)CCC2")
"> 100 µM"
>>> readout_value("CCOc1ccc2c(c1)[n+]([O-])c(-c1ccc(Br)cc1)c(N)[n+]2[O-]")
"> 100 µM"

----------
// reported GI50 per item
- System: NCI/ADR-RES ovarian
- Test method notes: NCI tumour cell line growth inhibition, 48 h
Property label: GI50

>>> readout_value("CCC(c1ccc(OC)cc1)C(CC)c1ccc(O)c(CN2CCN(C)CC2)c1 (centres undefined)")
"5.51 µM"
>>> readout_value("CCCCCCNC(=O)Oc1ccc(/C(=C(/C)Cc2ccc(OC)cc2)c2ccc(OCCCN(C)C)cc2)cc1")
"15.8 µM"
>>> readout_value("Nc1cc(O)ccc1N=Nc1ccc(-c2nc3ccccc3[nH]2)cc1")
"> 100 µM"
>>> readout_value("Nc1nc(N)c(C=Nc2ccc(Br)cc2)c(Nc2ccc(Br)cc2)n1")
"5.54 µM"
>>> readout_value("O=C(O)c1cn(C2CC2)c2cc(N3CCN(C(=O)Nc4nc(-c5ccccc5)cs4)CC3)c(F)cc2c1=O")
"4.82 µM"
>>> readout_value("COc1cc(-c2cc(-c3ccc(Nc4ccnc5cc(Cl)ccc45)cc3)nc(N3CCOCC3)n2)cc(OC)c1OC")
"2.3 µM"
>>> readout_value("COc1ccc(S(=O)(=O)NC2=NCCN2C(=S)SN2CCn3c2nsc3=S)cc1")
"32.5 µM"
>>> readout_value("Cn1nc(-c2ccc(Cl)cc2)nc2c(=O)n(C)c(=O)nc1-2")
"1.33 µM"
>>> readout_value("O=[N+]([O-])c1ccc(Oc2nc(Nc3ccc(O[C@H]4CO[C@H]5[C@@H]4OC[C@@H]5O)c(Cl)c3)ncc2F)c(Cl)c1")
"9.04 µM"

----------
- System: SN12C renal
- Test method notes: NCI tumour cell line growth inhibition, 48 h
Property label: TGI

>>> readout_value("COC(=O)C(=CNC(N)=O)C(=O)OC")
"> 100 µM"
>>> readout_value("c1ccc(CN[C@]23C4C5CC6C7C5C2C7[C@@](NCc2ccccc2)(C64)N3Cc2ccccc2)cc1 (stereo partly drawn)")
"> 100 µM"
>>> readout_value("CC1(C)C(CCO)CC1n1cc(I)c(=O)[nH]c1=O (stereo not drawn)")
"> 100 µM"
>>> readout_value("Cn1nc(-c2ccc(Cl)cc2)nc2c(=O)n(C)c(=O)nc1-2")
"1.45 µM"
>>> readout_value("CCOC(=O)c1c(Br)c(-c2ccc(OC)cc2)c(Br)n1C")
"49.2 µM"
>>> readout_value("Cc1ccc(C(NC(=O)c2ccccc2)c2ccc3cccnc3c2O)cc1 (stereo not drawn)")
"48.7 µM"
>>> readout_value("Nc1c(O)cc(N=C2C(=O)C=CC=C2C(=O)O)c(O)c1C(=O)O")
"> 100 µM"
>>> readout_value("CCOc1cc(Br)c(C(C)NC(=O)c2cccc(OC)c2)cc1OCC (stereo not drawn)")
"> 100 µM"
>>> readout_value("COC(=O)/C(=N/Nc1cccc(Cl)c1)C(C(=O)C(=O)Nc1cccc(Cl)c1C)c1nc2ccccc2nc1C (stereo not drawn)")
"> 100 µM"
>>> readout_value("COC(=O)C1C=CCON2CCc3c(n(C)c4ccccc34)C12 (stereo not drawn)")
"> 100 µM"
>>> readout_value("COC(=O)[C@H]1NC(=O)CCSSC1(C)C")
"> 100 µM"
>>> readout_value("COC12CCCN1c1ccn(Cc3ccccc3)c(=O)c1C2=O (stereo not drawn)")
"> 100 µM"
>>> readout_value("O=C(CCCCCC(=O)N1CC(CCl)c2ccc([N+](=O)[O-])cc21)N1CC(CCl)c2ccc([N+](=O)[O-])cc21 (stereo not drawn)")
"> 100 µM"
>>> readout_value("CN(Cc1cccc(F)c1)c1ccc(CO)c(Cl)c1")
"> 100 µM"
>>> readout_value("CCCCCCCC(CC(=O)NC(CO)C(=O)NC(CO)CC(C)C)OC(=O)CC(CCCCCCC)OC(=O)CC(CCCCCCC)OC1OC(C)C(O)C(OC2OC(C)C(O)C(O)C2OC(C)=O)C1O (stereo not drawn)")
"16.8 µM"
>>> readout_value("CCOC(=O)c1c(C)n(Cc2ccccc2)c2c1cc(O)c1[nH]c(Cc3ccccc3)nc12")
"39.8 µM"
>>> readout_value("CN(C)C(=Nc1nc(=[N+](C)C)ss1)N(C)C")
"> 100 µM"
>>> readout_value("Cc1cc2cc3ccc(N(C)C)cc3nc2cc1N")
"4.54 µM"
>>> readout_value("COC(=O)C1=C(c2ccc(OC)c(OC)c2)OC(c2cc(OC)c(OC)c(OC)c2)C1 (stereo not drawn)")
"> 100 µM"
>>> readout_value("CC1=CC(=O)C(C(C)C)=CC1=Nc1cc(Br)c(O)c(Br)c1")
"18.3 µM"
>>> readout_value("COC1CC(OC2C(C)OC(OC3C(C)OC(OC4C(O)CC(O[C@H]5CC[C@@]6(C)C(=CC[C@]7(O)[C@@H]6C[C@@H](OC(C)=O)[C@@]6(C)[C@]7(O)CC[C@@]6(O)C(C)=O)C5)OC4C)CC3OC)CC2OC)OC(C)C1O (stereo partly drawn)")
"> 12.5 µM"
>>> readout_value("O=C1C2=C(c3ccccc31)C(c1ccccc1)N1C(=O)CSC1=N2 (stereo not drawn)")
"> 94.9 µM"
>>> readout_value("Oc1ccc(O)c(-c2cc(-c3ccc(Cl)cc3)nn2-c2ccccc2)c1")
"7.19 µM"
>>> readout_value("Cc1nnc2c3nnc(C)n3c3ccccc3n12")
"> 100 µM"
>>> readout_value("CN=C(NC(=S)N(C)C)N(C)C")
"> 100 µM"
>>> readout_value("COc1ccc2c(C3(c4cn(C)c5cc(OC)ccc45)C(=O)Nc4ccc(Cl)cc43)cn(C)c2c1")
"4.63 µM"
>>> readout_value("Oc1ccc(-c2nc3ccc4[nH]ncc4c3c3c2CCCC3)c(F)c1")
"12.5 µM"
>>> readout_value("CCCCCCNC(=O)CCC(NC(=O)c1ccc(N(C)Cc2cnc3nc(N)nc(N)c3n2)cc1)C(=O)NCCCCCC (stereo not drawn)")
"> 100 µM"
>>> readout_value("O=[N+]([O-])c1ccc(Cl)c(C2CC(c3cccc4ccccc34)=Nc3ccccc3S2)c1 (stereo not drawn)")
"> 59.4 µM"
>>> readout_value("COc1cc2cc(C(=O)N3CC(CCl)c4c3cc(NC(=O)OCc3ccc([N+](=O)[O-])cc3)c3ccccc43)[nH]c2c(OC)c1OC (stereo not drawn)")
"> 100 µM"
>>> readout_value("CCCC(O)c1cn(C(NC(=O)c2ccccc2)P(=O)(OCC)OCC)nn1 (stereo not drawn)")
"> 100 µM"
>>> readout_value("COc1ccc(NC(=O)CC(=O)n2nc(C)c(N=Nc3cccc(C)c3)c2C)cc1")
"> 100 µM"
>>> readout_value("C(=Nc1ccc(-c2nc3ccccc3[nH]2)cc1)c1ccc[nH]1")
"> 100 µM"
